Molecular target: Cyclin-dependent kinase 2 (Homo sapiens) (UniProt P24941)
Settings: Compound concentration 20.0 uM, Protein concentration 2.0 uM, Result type QC Liability
Description: Thermal Shift Assay. Domain: start/stop: M1-L298
PROPERTY_LABEL: ΔTm (°C)
Unit °C implied. Number only.

Worked set:
COc1ncc(-c2cc(-c3ncc(CN4C[C@@H](C)O[C@@H](C)C4)o3)c3cn[nH]c3c2)cc1NS(C)(=O)=O: 0.2
CCN1C(=O)N(c2c(F)c(OC)cc(OC)c2F)Cc2cnc3[nH]c(CN4CCOCC4)cc3c21: 6.96
O=C(O)C[C@H]1CCn2c1c(Sc1ccc(Cl)cc1)c1ccc(F)cc12: -1.1
O=C(NCc1ccc(F)cc1)C1CCN(S(=O)(=O)c2cc(Cl)cc(Cl)c2)CC1: -0.1

The molecule identified as "Cc1nccn1-c1ccc(Sc2cccc(C3(C(N)=O)CCOCC3)c2)cc1" registered its ΔTm at 0.53

The molecule identified as "O=C(Nc1ccc(-n2nc(-c3cccnc3)cc2C(F)(F)F)cn1)c1ccc(-c2ccccc2)c(F)c1" registered its ΔTm at -0.05

The molecule identified as "Cn1cc(-n2cnc3c(NCc4nc5cc(Cl)c(Cl)cc5[nH]4)nc(N4CCOCC4)nc32)cn1" registered its ΔTm at 0.06

The molecule identified as "O=S(=O)(Nc1ccc(C(O)(C(F)(F)F)C(F)(F)F)cc1)c1cccs1" registered its ΔTm at 0.73

The molecule identified as "COc1ccccc1S(=O)(=O)Nc1ccc2c(c1)CN(C)C(=O)N2" registered its ΔTm at 1.13

The molecule identified as "COc1cc2c(cc1CC=C(C)C)C(=O)C[C@@H](c1ccc(O)cc1)O2" registered its ΔTm at 1.21

The molecule identified as "CC(C)c1cnn2c(NCc3ccccc3)cc(NCCCCCCN)nc12" registered its ΔTm at 1.03

The molecule identified as "COCCN1CCN(CCn2ccc(Nc3ncc4c(n3)-c3c(nn(C)c3-c3ccccc3)C[C@H]4C)n2)CC1" registered its ΔTm at 3.1

The molecule identified as "CC[C@H](NC(=O)[C@H](C)NC)C(=O)N1C[C@@H](O)C[C@H]1Cc1c(-c2[nH]c3cc(F)ccc3c2C[C@@H]2C[C@H](O)CN2C(=O)[C@H](CC)NC(=O)[C@H](C)NC)[nH]c2cc(F)ccc12" registered its ΔTm at 0.28

The molecule identified as "CNCc1ccc(-c2cc(-c3nc(-c4ccc(S(=O)(=O)C(C)C)cc4)cnc3N)on2)cc1" registered its ΔTm at -0.24
